Values were extracted from the supplement of paper PMC3545927.

target: furin, P09958;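 also: purified furin at 1:10 enzyme:substrate in 50 mM HEPES pH 7.5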
Sequence (P09958 whole entry): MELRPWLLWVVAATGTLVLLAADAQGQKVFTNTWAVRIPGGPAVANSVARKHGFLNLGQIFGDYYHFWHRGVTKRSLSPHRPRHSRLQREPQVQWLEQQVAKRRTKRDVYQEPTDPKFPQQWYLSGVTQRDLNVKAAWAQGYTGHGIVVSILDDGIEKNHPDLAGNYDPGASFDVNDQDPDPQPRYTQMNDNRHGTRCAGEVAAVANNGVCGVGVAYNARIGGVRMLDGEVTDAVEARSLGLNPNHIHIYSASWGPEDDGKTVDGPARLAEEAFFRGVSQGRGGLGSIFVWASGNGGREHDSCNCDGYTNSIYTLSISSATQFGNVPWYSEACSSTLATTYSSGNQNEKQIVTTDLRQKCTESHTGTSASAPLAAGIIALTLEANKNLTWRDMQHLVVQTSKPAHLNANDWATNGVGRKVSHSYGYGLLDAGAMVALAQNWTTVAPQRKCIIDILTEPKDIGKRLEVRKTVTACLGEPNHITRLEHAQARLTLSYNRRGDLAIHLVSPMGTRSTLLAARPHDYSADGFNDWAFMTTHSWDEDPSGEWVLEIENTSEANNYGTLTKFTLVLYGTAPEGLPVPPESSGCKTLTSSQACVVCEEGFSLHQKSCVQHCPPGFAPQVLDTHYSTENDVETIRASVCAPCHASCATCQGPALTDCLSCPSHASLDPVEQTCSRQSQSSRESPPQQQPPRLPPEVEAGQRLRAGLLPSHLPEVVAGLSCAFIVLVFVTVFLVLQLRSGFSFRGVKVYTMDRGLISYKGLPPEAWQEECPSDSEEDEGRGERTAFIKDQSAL
experimentalProtocol: furin cleavage Z-score vs untreated control; higher = more cleavage, active = 3.5 or more, inactive = 1 or less, 8 variable residues between constant flanks
recordedConditions: 30 min
The other results are listed elsewhere or left out. How many sequences the whole screen found active is unknown.
Classes used: active, inactive

>  <residueString>
CAPINAYTTGAGNASASA [HC1191]

>  <class>
inactive

$$$$
>  <residueString>
CAMEECSQCLAGNASASA [HC1760]

>  <class>
inactive

$$$$
>  <residueString>
CAVFSQMETKAGNASASA [HC648]

>  <class>
inactive

$$$$
>  <residueString>
CARYSRGVLSAGNASASA [FS-2113]

>  <class>
inactive

$$$$
>  <residueString>
CAARGRGGRDAGNASASA [FS-978]

>  <class>
inactive

$$$$
>  <residueString>
CARQKRFVLSAGNASASA [FU6]

>  <class>
active

$$$$
>  <residueString>
CARQKRDWVIAGNASASA [FS-2586]

>  <class>
active

$$$$
>  <residueString>
CAEVVTSTNVAGNASASA [HC2241]

>  <class>
inactive

$$$$
>  <residueString>
CAWGVLAGIAAGNASASA [HC337]

>  <class>
inactive

$$$$
>  <residueString>
CAARARLPRDAGNASASA [FS-1185]

>  <class>
active

$$$$
